tested on: DeltatarO mutant; assay: S. aureus survival, RN4220 and DeltatarO strains – OD600, teichoic acid synthesis inhibitors, primary screen (AID 463173); settings: S. aureus RN4220 wild type/DeltatarO growth, OD600, 18 h, stronger effect = lower value, screened at 18.75 µg/mL (by protocol)
Hit rate of the full screen: of about 52,000 compounds, about 4,300 (8.3%) were called active. What follows is part of a selection rich in actives, with near analogues and random picks from the rest.
Output y for records whose survival is lower than 60%, n for records at or above 60%.

Ask | Find out if reported survival for COc1cc(C(CC(=O)Nc2ccc(Br)cn2)N2Cc3ccccc3C2=O)cc(OC)c1OC (stereo not given) is less than 60%
Reply | n

Ask | Find out if reported survival for Cc1cc(C)c(S(=O)(=O)NCCc2sc3nc(-c4ccc(F)cc4)nn3c2C)c(C)c1 is less than 60%
Reply | n

----------
system: DeltatarO mutant; experiment: S. aureus survival, RN4220 and DeltatarO strains – OD600, teichoic acid synthesis inhibitors, primary screen (AID 463173); conditions: S. aureus RN4220 wild type/DeltatarO growth, OD600, 18 h, stronger effect = lower value, screened at 18.75 µg/mL (by protocol)
The whole screen tested about 52,000 compounds, of which about 4,300 (8.3%) were called active. Many of the other results were omitted from the sample, so actives are more common in it than they were.
MEASURED_METRIC: survival (%)
Form entry: value (%) — number only.

>  <COMPOUND>
Cc1ccc(-n2ncc(C(=O)NCc3ccccn3)c2C2CCN(C(=O)OC(C)(C)C)CC2)cc1C

>  <survival, %>
102

$$$$
>  <COMPOUND>
CCc1nnc(SC(CC)C(=O)Nc2ccc(OC)c(Cl)c2)c2cc3occc3n12 (centres undefined)

>  <survival, %>
72

$$$$
>  <COMPOUND>
Cc1cccc(NC(=O)CSc2nc(-c3ccco3)cc(C(F)(F)F)n2)c1C

>  <survival, %>
69

$$$$

Switching to the query record.
Ask | Recorded survival for CCc1c(C)sc(NC(=O)c2cc(-c3ccc(OC)c(OC)c3)on2)c1C#N , please?
Reply | 149

----------
tested on: DeltatarO mutant; assay: S. aureus survival, RN4220 and DeltatarO strains – OD600, teichoic acid synthesis inhibitors, primary screen (AID 463173); conditions: S. aureus RN4220 wild type/DeltatarO growth, OD600, 18 h, stronger effect = lower value, screened at 18.75 µg/mL (by protocol)
Among all 52,000 compounds or so, about 4,300 (8.3%) were called active. The sample as a whole holds a higher share of actives than the screen did.
Output condition met for records whose survival is lower than 80%, condition not met for records at or above 80%.

>  <STRUCTURE>
Cc1ccc(-c2nc3ccccc3[nH]2)cc1NC(=O)COc1ccc(Cl)cc1Cl

>  <CLASS_LABEL>
condition met

$$$$
>  <STRUCTURE>
CC(C)COc1cccc(C(=O)Nc2ccc(-c3nc4ncccc4o3)cc2)c1

>  <CLASS_LABEL>
condition met

$$$$
>  <STRUCTURE>
CCCSCCCNC(=O)CN1C(=O)COc2ccc(S(=O)(=O)N3CCC(C)CC3)cc21

>  <CLASS_LABEL>
condition not met

$$$$
>  <STRUCTURE>
CCc1ccc(NC(=O)Cn2ccn(-c3ccc(C)c(C)c3)c(=O)c2=O)cc1

>  <CLASS_LABEL>
condition not met

$$$$
>  <STRUCTURE>
CCCCOc1ccccc1NC(=O)Cn1c(-c2cncs2)nc2ccccc21

>  <CLASS_LABEL>
condition met

$$$$

Ask | Find out if reported survival for CCc1ccc(NC(=O)Cn2c(-c3cncs3)nc3ccccc32)cc1 is less than 80%
Reply | condition met

Ask | Find out if reported survival for Cc1ccc(-c2nc3ccccc3[nH]2)cc1NC(=O)COc1cccc(C)c1C is less than 80%
Reply | condition met

Ask | Find out if reported survival for CS(=O)(=O)N(Cc1ccccc1)c1ccc(C(=O)Nc2ccc(Cl)cc2)cc1 is less than 80%
Reply | condition not met

Ask | Find out if reported survival for Cc1ccc(C(C)C)c(OCC(=O)Nc2cc(-c3nc4ccccc4[nH]3)ccc2C)c1 is less than 80%
Reply | condition met

Ask | Find out if reported survival for CCC(=O)N1CCc2cc(CNC(=O)c3cccc(N(C)C)c3)ccc21 is less than 80%
Reply | condition not met

Hey, just so you know, these numbers are from PubChem BioAssay AID463173.
